Source listed as the supplement of paper PMC9112550.

# System: Escherichia coli TOP10
# assay-overview: shrunken log2 fold change of peptide-encoding DNA abundance (4.5 h post-induction vs induction); higher = less antimicrobial activity (less host growth inhibition)
# assay-context: time post-induction: 4.5 h; library: site-saturation at positions 5, 18, 19, 20
Provide the recorded shrunken log2 fold change for the entries that follow.
Answers are plain numbers.

Some solved entries appear below for comparison.
- primary-sequence: "RRIRFRPPRLPRPRPRPNHAPRP"
  measured-target: "Escherichia coli TOP10"
  shrunken log2 fold change: 0.0222
- primary-sequence: "RRIRIRPPRLPRPRPRPPDLPRP"
  measured-target: "Escherichia coli TOP10"
  shrunken log2 fold change: -0.00973
- primary-sequence: "RRIRGRPPRLPRPRPRPAYVPRP"
  measured-target: "Escherichia coli TOP10"
  shrunken log2 fold change: -0.0723
- primary-sequence: "RRIRERPPRLPRPRPRPKWAPRP"
  measured-target: "Escherichia coli TOP10"
  shrunken log2 fold change: 0.0574

Please report shrunken log2 fold change for every entry that follows.
1. RRIRLRPPRLPRPRPRPYPIPRP
2. RRIRMRPPRLPRPRPRPLGCPRP
3. RRIRWRPPRLPRPRPRPRTCPRP
4. RRIRHRPPRLPRPRPRPEKKPRP

1: 0.107; 2: 0.182; 3: -0.045; 4: -0.00333

###

# System: Escherichia coli TOP10
# assay-overview: shrunken log2 fold change of peptide-encoding DNA abundance (4.5 h post-induction vs induction); higher = less antimicrobial activity (less host growth inhibition)
# assay-context: time post-induction: 4.5 h; library: site-saturation at positions 5, 18, 19, 20
property-name: shrunken log2 fold change
Give bare numbers.

Solved cases below.
- primary-sequence: "RRIRNRPPRLPRPRPRPPLYPRP"
  measured-target: "Escherichia coli TOP10"
  shrunken log2 fold change: -0.101
- primary-sequence: "RRIRPRPPRLPRPRPRPQAEPRP"
  measured-target: "Escherichia coli TOP10"
  shrunken log2 fold change: 0.113

Items follow; give shrunken log2 fold change for each.
1. RRIRWRPPRLPRPRPRPGCFPRP
2. RRIRRRPPRLPRPRPRPNPIPRP
3. RRIRNRPPRLPRPRPRPANEPRP
4. RRIRVRPPRLPRPRPRPFKHPRP

1. 0.375
2. 0.208
3. -0.00326
4. -0.0897

Hi there! I need shrunken log2 fold change for each item below, if you can.
1. RRIRGRPPRLPRPRPRPNMGPRP
2. RRIRHRPPRLPRPRPRPRDYPRP
3. RRIRNRPPRLPRPRPRPSMTPRP
4. RRIRRRPPRLPRPRPRPMRGPRP
5. RRIRPRPPRLPRPRPRPQTYPRP

[0.269, 0.0554, 0.0898, 1.38, -0.256]

Please report shrunken log2 fold change for every entry that follows.
1. RRIRPRPPRLPRPRPRPEKLPRP
2. RRIRGRPPRLPRPRPRPWNPPRP
3. RRIRVRPPRLPRPRPRPSRAPRP
4. RRIRIRPPRLPRPRPRPFMTPRP
5. RRIRWRPPRLPRPRPRPLLFPRP

[0.226, -0.448, 0.152, -1.01, -0.0366]

###

# Tested on: Escherichia coli TOP10
# assay-overview: shrunken log2 fold change of peptide-encoding DNA abundance (4.5 h post-induction vs induction); higher = less antimicrobial activity (less host growth inhibition)
# assay-context: time post-induction: 4.5 h; library: site-saturation at positions 5, 18, 19, 20
Reported shrunken log2 fold change maps to class as: bin 1 (below -0.07), bin 2 (-0.07 to below 0.08), bin 3 (0.08 or more)

Please review the entries below; each comes with its answer.
- primary-sequence: "RRIRNRPPRLPRPRPRPWMHPRP"
  class-name: "bin 1"
- primary-sequence: "RRIRMRPPRLPRPRPRPPNTPRP"
  class-name: "bin 3"
- primary-sequence: "RRIRQRPPRLPRPRPRPTKQPRP"
  class-name: "bin 2"
- primary-sequence: "RRIRRRPPRLPRPRPRPYGLPRP"
  class-name: "bin 2"
- primary-sequence: "RRIRIRPPRLPRPRPRPIYFPRP"
  class-name: "bin 1"

Just checking, what class would you give RRIRSRPPRLPRPRPRPQAEPRP here? bin 2

Exercise: read the entry RRIRSRPPRLPRPRPRPVTLPRP and state which class it falls under. bin 1

###

Please go through the items and note down their shrunken log2 fold change.
# Tested on: Escherichia coli TOP10
# assay-overview: shrunken log2 fold change of peptide-encoding DNA abundance (4.5 h post-induction vs induction); higher = less antimicrobial activity (less host growth inhibition)
# assay-context: time post-induction: 4.5 h; library: site-saturation at positions 5, 18, 19, 20
Give bare numbers.

- primary-sequence: "RRIRDRPPRLPRPRPRPMPGPRP"
  property-name: "shrunken log2 fold change"
  assay-result: 0.065

Please give shrunken log2 fold change for each item listed below.
1. RRIRMRPPRLPRPRPRPRKGPRP
2. RRIRERPPRLPRPRPRPHYRPRP
3. RRIRMRPPRLPRPRPRPKRTPRP
4. RRIRSRPPRLPRPRPRPRNTPRP

0.81
0.05
3.45
-0.411

Hi there! I need shrunken log2 fold change for each item below, if you can.
1. RRIRARPPRLPRPRPRPNARPRP
2. RRIRIRPPRLPRPRPRPRHVPRP
3. RRIRFRPPRLPRPRPRPEHGPRP

1. 0.124
2. -0.163
3. 0.00151

###

# Test system: Escherichia coli TOP10
# assay-overview: shrunken log2 fold change of peptide-encoding DNA abundance (4.5 h post-induction vs induction); higher = less antimicrobial activity (less host growth inhibition)
# assay-context: time post-induction: 4.5 h; library: site-saturation at positions 5, 18, 19, 20
Lab note: compare shrunken log2 fold change against 0.009. Equal or greater, write fulfilled. Smaller, write not fulfilled.

Examples with answers:
- primary-sequence: "RRIRCRPPRLPRPRPRPEKQPRP"
  class-name: "not fulfilled"
- primary-sequence: "RRIRNRPPRLPRPRPRPVIYPRP"
  class-name: "not fulfilled"
- primary-sequence: "RRIRTRPPRLPRPRPRPMVEPRP"
  class-name: "fulfilled"

# check: shrunken log2 fold change of RRIRYRPPRLPRPRPRPNPAPRP is greater than or equal to 0.009 fulfilled

// inclusive: shrunken log2 fold change at least 0.009? input: RRIRERPPRLPRPRPRPTNWPRP fulfilled

Hello, I need to know if RRIRCRPPRLPRPRPRPCTLPRP has measured shrunken log2 fold change not below 0.009. Thanks! not fulfilled

Given the entry RRIRRRPPRLPRPRPRPKKTPRP , answer whether its shrunken log2 fold change meets or surpasses 0.009. not fulfilled

Reported shrunken log2 fold change reaches at least 0.009 for RRIRARPPRLPRPRPRPQQEPRP ? not fulfilled

Item RRIRKRPPRLPRPRPRPCEQPRP with shrunken log2 fold change of 0.009 or above? fulfilled

Does the sequence RRIRLRPPRLPRPRPRPYFFPRP have recorded shrunken log2 fold change that is 0.009 or more? not fulfilled

Would you say RRIRQRPPRLPRPRPRPIICPRP shows shrunken log2 fold change at minimum 0.009? fulfilled

Test whether the sequence RRIRYRPPRLPRPRPRPNINPRP records shrunken log2 fold change of 0.009 or higher. not fulfilled

API: above_or_equal(metric=shrunken log2 fold change, cutoff=0.009) for item RRIRARPPRLPRPRPRPRIHPRP not fulfilled

Decide: shrunken log2 fold change of RRIRGRPPRLPRPRPRPIWVPRP >= 0.009? not fulfilled

Determine whether measured shrunken log2 fold change meets or exceeds 0.009 for RRIRLRPPRLPRPRPRPRIFPRP not fulfilled

shrunken log2 fold change >= 0.009 for RRIRMRPPRLPRPRPRPGYFPRP ? fulfilled

Is the recorded value of shrunken log2 fold change equal to or greater than 0.009 for this sequence? RRIRLRPPRLPRPRPRPWQGPRP not fulfilled

Given the entry RRIRWRPPRLPRPRPRPWRFPRP , answer whether its shrunken log2 fold change meets or surpasses 0.009. fulfilled

Please check the record RRIRCRPPRLPRPRPRPYACPRP and state if its shrunken log2 fold change is at or above 0.009. not fulfilled

###

# Tested on: Escherichia coli TOP10;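 further: peptides expressed intracellularly from a pBAD plasmid library in pooled LB shake-flask culture, induced with 0.3% L-arabinose, DNA abundance read by NGS, three biological replicates, DESeq2 with apeglm shrinkage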
# assay-overview: shrunken log2 fold change of peptide-encoding DNA abundance (4.5 h post-induction vs induction); higher = less antimicrobial activity (less host growth inhibition)
# assay-context: time post-induction: 4.5 h; library: site-saturation at positions 5, 18, 19, 20
property-name: shrunken log2 fold change
One number for each entry.

Some solved cases for reference:
- primary-sequence: "RRIRVRPPRLPRPRPRPLNHPRP"
  measured-target: "Escherichia coli TOP10"
  shrunken log2 fold change: -0.17
- primary-sequence: "RRIRYRPPRLPRPRPRPHEAPRP"
  measured-target: "Escherichia coli TOP10"
  shrunken log2 fold change: -0.215
- primary-sequence: "RRIRGRPPRLPRPRPRPYTKPRP"
  measured-target: "Escherichia coli TOP10"
  shrunken log2 fold change: -0.216
- primary-sequence: "RRIRDRPPRLPRPRPRPWGFPRP"
  measured-target: "Escherichia coli TOP10"
  shrunken log2 fold change: 0.13
- primary-sequence: "RRIRCRPPRLPRPRPRPVEKPRP"
  measured-target: "Escherichia coli TOP10"
  shrunken log2 fold change: 0.551

Please go through the list and note shrunken log2 fold change for each sequence.
1. RRIRMRPPRLPRPRPRPWYKPRP
2. RRIRQRPPRLPRPRPRPNHAPRP
3. RRIRLRPPRLPRPRPRPMPAPRP
4. RRIRHRPPRLPRPRPRPCENPRP
5. RRIRKRPPRLPRPRPRPLMQPRP
6. RRIRCRPPRLPRPRPRPGARPRP
7. RRIRMRPPRLPRPRPRPQHDPRP

1: 0.00884; 2: -0.474; 3: 0.221; 4: -0.0381; 5: -0.134; 6: 0.394; 7: -0.202

// input: 3 sequences below; output: shrunken log2 fold change for each
1. RRIRQRPPRLPRPRPRPAMGPRP
2. RRIRYRPPRLPRPRPRPVRGPRP
3. RRIRWRPPRLPRPRPRPGHVPRP

0.127
0.393
0.153
